- Tested on: HOP-62
- test.details: NCI 60-cell drug screen, one dose
- Format: cell-based, human
- experimental.conditions: Non-Small Cell Lung Cancer HOP-62, 1.00E−5 Molar
value.type: Growth Percent (%)
Supply the numeric figure in %, leaving out any unit text.

O=C1c2ccccc2C(=O)c2c1ccc1nc(CN3CCCCC3)[nH]c21 [CL16] : 92.69
CN(CCc1ccccn1)Cc1nc2ccc3c(c2[nH]1)C(=O)c1ccccc1C3=O [CL07] : 105.37
CCN(CC)Cc1nc2ccc3c(c2[nH]1)C(=O)c1ccccc1C3=O [CL04] : 85.27
CN1CCN(Cc2nc3ccc4c(c3[nH]2)C(=O)c2ccccc2C4=O)CC1 [CL24] : 60.84

Lookup: Growth Percent lookup needed for O=C1c2ccccc2C(=O)c2c1ccc1nc(CN3CCN(c4ccccn4)CC3)[nH]c21 [CL28] , thanks.
Found: 103.18

Lookup: Repeat for the following molecule: O=C1c2ccccc2C(=O)c2c1ccc1nc(CN3CCN(c4ccccc4)CC3)[nH]c21 [CL27]
Found: 98.40

FYI, the data here is from patent US8124637B2.
